tested on: barnyardgrass (Echinochloa crus-galli); test: Test C pre-/postemergence greenhouse test; format: in vivo; conditions: Preemergence, 125 g ai/ha; scale 0 to 100
EXPERIMENTAL_ENDPOINT: Plant response rating, Barnyardgrass
Provide a numeric answer; units are not to be included.

>>> assay_result("Cc1ccc2ccc(Cl)cc2c1-c1c(O)c(Cl)nn(C)c1=O [Cpd. No. 22]")
100

Data request: Would you kindly share the measured Plant response rating, Barnyardgrass for Cc1ccc2ccc(C)c(-c3c(O)c(Cl)nn(C)c3=O)c2c1 [Cpd. No. 20] ?
Data returned: 100

Data request: Would you kindly share the measured Plant response rating, Barnyardgrass for Cc1cc(Cl)c2ccccc2c1-c1c(O)c(Cl)nn(C)c1=O [Cpd. No. 65] ?
Data returned: 75

Data request: Would you kindly share the measured Plant response rating, Barnyardgrass for Cc1ccc2ccc(F)cc2c1-c1c(O)c(Cl)nn(C)c1=O [Cpd. No. 21] ?
Data returned: 95
